# Test system: HaCaT
# TEST: Cytotoxicity against human HaCaT cells assessed as decrease in cell viability at 3.125 to 25 uM after 24 hrs by MTT assay
# Assay type: cell-based
MEASUREMENT LABEL: Activity

• CCC(C)C(=O)O[C@H]1[C@H](O)C(C)(C)C[C@H]2C3=CC[C@@H]4[C@@]5(C)CC[C@H](O[C@@H]6O[C@H](C(=O)O)[C@@H](O)[C@H](O[C@@H]7OC[C@H](O)[C@H](O[C@@H]8O[C@@H](C)[C@H](O)[C@@H](O)[C@H]8O)[C@H]7O)[C@H]6O)[C@@](C)(CO)[C@@H]5CC[C@@]4(C)[C@]3(C)[C@@H](OC(=O)CC(C)C)[C@@H](O)[C@]21CO (stereo partly drawn) = Non-Toxic
• C/C=C(/C)C(=O)O[C@H]1[C@H](OC(=O)CC(C)C)[C@]2(CO)[C@H](OC(C)=O)[C@H](OC(C)=O)[C@]3(C)C(=CC[C@@H]4[C@@]5(C)CC[C@H](O[C@@H]6O[C@H](C(=O)O)[C@@H](O)[C@H](O[C@@H]7OC[C@H](O)[C@H](O[C@@H]8O[C@@H](C)[C@H](O)[C@@H](O)[C@H]8O)[C@H]7O)[C@H]6O)[C@@](C)(CO)[C@@H]5CC[C@]43C)[C@@H]2CC1(C)C = Non-Toxic
• C/C=C(/C)C(=O)O[C@H]1[C@H](OC(=O)CC(C)C)[C@]2(CO)[C@H](O)[C@H](O)[C@]3(C)C(=CC[C@@H]4[C@@]5(C)CC[C@H](O[C@@H]6O[C@H](C(=O)O)[C@@H](O)[C@H](O[C@@H]7OC[C@H](O)[C@H](O[C@@H]8O[C@@H](C)[C@H](O)[C@@H](O)[C@H]8O)[C@H]7O)[C@H]6O)[C@@](C)(C=O)[C@@H]5CC[C@]43C)[C@@H]2CC1(C)C = Non-Toxic
